# Target Or System: Sortase family protein (Staphylococcus aureus)
# Sequence (Q9S446 whole entry): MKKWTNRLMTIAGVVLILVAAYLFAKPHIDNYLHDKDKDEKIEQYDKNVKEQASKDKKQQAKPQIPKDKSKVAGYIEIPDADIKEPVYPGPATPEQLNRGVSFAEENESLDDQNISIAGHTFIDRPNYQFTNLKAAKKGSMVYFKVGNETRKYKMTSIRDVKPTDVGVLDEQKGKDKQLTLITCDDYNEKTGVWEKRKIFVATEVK
# Method Description: Inhibition of Staphylococcus aureus ATCC 6538p recombinant SrtA
Reported Metric: pIC50
The read-out pIC50 is expressed as -log10 of concentration in moles per litre.

Notebook: pull reported pIC50 for Sortase family protein (Staphylococcus aureus), entry O=C(O)c1cc[c]([Hg][OH])cc1 3.95
